substrate: O=C1CCC[C@H]2CCCC[C@H]12; experiment: purified protein; assay type: biochemical, Streptomyces coelicolor; conditions: co-substrate NADPH
Km reference
Numeric only. Scale: µM

INSERT INTO assay_data (protein, readout_name, recorded_number) VALUES
  ('actKR (actinorhodin type II polyketide ketoreductase) (Streptomyces coelicolor A3(2); T145A) (protein) MATQDSEVALVTGATSGIGLEIARRLGKEGLRVFVCARGEEGLRTTLKELREAGVEADGRTCDVRSVPEIEALVAAVVERYGPVDVLVNNAGRPGGGATAELADELWLDVVETNLTGVFRVTKQVLKAGGMLERGTGRIVNIASAGGKQGVVHAAPYSASKHGVVGFTKALGLELARTGITVNAVCPGFVETPMAASVREHYSDIWEVSTEEAFDRITARVPIGRYVQPSEVAEMVAYLIGPGAAAVTAQALNVCGGLGNY', 'Km', 420);

Next, consider the following protein.
Query block: Bench note: what Km did actKR (actinorhodin type II polyketide ketoreductase) (Streptomyces coelicolor A3(2); D109R) (protein) MATQDSEVALVTGATSGIGLEIARRLGKEGLRVFVCARGEEGLRTTLKELREAGVEADGRTCDVRSVPEIEALVAAVVERYGPVDVLVNNAGRPGGGATAELADELWLRVVETNLTGVFRVTKQVLKAGGMLERGTGRIVNIASTGGKQGVVHAAPYSASKHGVVGFTKALGLELARTGITVNAVCPGFVETPMAASVREHYSDIWEVSTEEAFDRITARVPIGRYVQPSEVAEMVAYLIGPGAAAVTAQALNVCGGLGNY show?
Result block: 1250
